# thermal shift delta Tm per record follows
- Test system: LOC_OS07G07230-cb001;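 further: purified Escherichia coli-expressed rice kinase domain construct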
- experimentalProtocol: thermal shift delta Tm vs DMSO control; higher = stronger stabilization (binding)
- conditionSet: 12.5 µM; protein concentration 2 µM
API: value field is a number in °C; no unit string.

Look over these answered cases.
compound	thermal shift delta Tm / °C
Cc1cc(C(C)Nc2ccccc2)c2nc(N3CCOCC3)cc(=O)n2c1 (stereo unspecified)	0.53
N#Cc1ccc(-c2c(-c3ncn[nH]3)sc(N3CCOCC3)c2C#N)c(F)c1	0.24
CC(C)[C@H](CO)Nc1nc(Nc2cccc(Cl)c2)c2ncn(C(C)C)c2n1 [Purvalanol A]	-0.31
COc1ccc([C@@H]2OC[C@H]3[C@@H]2CO[C@@H]3c2ccc(O[C@@H]3O[C@H](CO)[C@@H](O)[C@H](O)[C@H]3O)c(OC)c2)cc1OC [Forsythin]	0.9
OCCn1cc(-c2ccc3c(c2)CC/C3=N\O)c(-c2ccncc2)n1	0.21

Attention now shifts to the item below.
For the compound Nc1nc(N)c2nc(-c3cccc(O)c3)c(-c3cccc(O)c3)nc2n1 , report thermal shift delta Tm.
0.2
